Entry source: patent US20220315534A1

Target: β2-adrenergic receptor (B2-AR) (Homo sapiens)
Construct: expressed in transfected cells
Sequence (P07550 whole entry): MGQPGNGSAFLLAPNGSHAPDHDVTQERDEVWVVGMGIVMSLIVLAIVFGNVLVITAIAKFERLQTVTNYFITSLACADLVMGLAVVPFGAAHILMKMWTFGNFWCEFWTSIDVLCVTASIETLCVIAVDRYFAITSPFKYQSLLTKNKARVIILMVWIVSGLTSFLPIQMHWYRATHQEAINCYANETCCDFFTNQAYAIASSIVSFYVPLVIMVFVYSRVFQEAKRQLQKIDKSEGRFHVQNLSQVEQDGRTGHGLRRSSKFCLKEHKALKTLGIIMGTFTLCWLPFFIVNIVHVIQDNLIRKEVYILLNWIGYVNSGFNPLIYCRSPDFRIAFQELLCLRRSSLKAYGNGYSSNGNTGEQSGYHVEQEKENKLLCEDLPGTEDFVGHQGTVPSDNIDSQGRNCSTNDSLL
Experiment: cAMP Gs dynamic HTRF assay, cells expressing β2-adrenergic receptor
Format: cell-based
Conditions: CHO-K1 (HitHunter) cells; read-out: Average pEC50 [Receptor subtype: B2-AR; Cell type: CHO-K1 (HitHunter)] (converted)
molecules and their reported EC50

CC(C)(C)NC[C@H](O)c1cccc2[nH]cc(F)c12 [Compound 04-112]	< 0.01 µM
CC(C)(CO)NC[C@H](O)c1cccc2[nH]c(=O)ccc12 [Compound 04-141]	< 0.01 µM
CC(C)(C)NC[C@H](O)c1cccc2[nH]ncc12 [Compound 04-25]	< 0.01 µM
Cc1cc([C@@H](O)CNC(C)(C)C)c2cn[nH]c2c1 [Compound 04-109]	< 0.01 µM
CC(C)NC[C@H](O)c1cccc2[nH]c(=O)ccc12 [Compound 04-152]	< 0.01 µM
CC(C)(C)NC[C@H](O)c1cnc(N)c(Cl)c1 [Compound 02-1]	0.01 to 0.1 µM
CC(C)(C)NC[C@H](O)c1cccc2[nH]c3cccnc3c12 [Compound 04-119]	< 0.01 µM
COc1ccc([C@@H](O)CNC(C)(C)C)c2cn[nH]c12 [Compound 04-150]	< 0.01 µM

The molecule listed as CC(C)CNC[C@H](O)c1ccc2nc[nH]c2c1 [Compound 04-140] shows EC50 equal to 0.1 to 1 µM

The molecule listed as CC(C)(C)NC[C@H](O)c1cccc2nccnc12 [Compound 04-75] shows EC50 equal to < 0.01 µM

The molecule listed as CC(C)(C)NC[C@H](O)c1ccc2c(n1)OCCO2 [Compound 04-7] shows EC50 equal to 0.01 to 0.1 µM

---

Target: β1-adrenergic receptor (B1-AR) (Homo sapiens)
Construct: expressed in transfected cells
Sequence (P08588 whole entry): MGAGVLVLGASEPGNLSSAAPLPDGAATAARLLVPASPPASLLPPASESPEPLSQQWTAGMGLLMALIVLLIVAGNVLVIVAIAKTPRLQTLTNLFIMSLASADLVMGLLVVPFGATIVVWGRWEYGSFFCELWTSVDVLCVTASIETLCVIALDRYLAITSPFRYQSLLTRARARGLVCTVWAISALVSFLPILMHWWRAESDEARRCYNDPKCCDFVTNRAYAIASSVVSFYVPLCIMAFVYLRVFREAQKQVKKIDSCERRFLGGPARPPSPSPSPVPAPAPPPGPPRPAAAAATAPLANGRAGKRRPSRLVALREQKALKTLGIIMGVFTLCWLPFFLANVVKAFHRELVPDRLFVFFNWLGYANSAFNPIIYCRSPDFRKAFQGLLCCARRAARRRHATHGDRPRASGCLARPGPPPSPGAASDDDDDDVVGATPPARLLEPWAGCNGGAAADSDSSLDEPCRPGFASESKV
Assay: cAMP Gs dynamic HTRF assay, cells expressing β1-adrenergic receptor
Assay type: cell-based
Conditions: CHO-K1 (HitHunter) cells; read-out: Average pEC50 [Receptor subtype: B1-AR; Cell type: CHO-K1 (HitHunter)] (converted)
readout-type: EC50

CC(C)(C)NC[C@H](O)c1cccc2[nH]c(=O)ccc12	< 10 nM
Cn1ncc2cc([C@@H](O)CNC(C)(C)C)ccc21	> 1000 nM
CC(C)(C)NC[C@H](O)c1ccnc2[nH]ncc12	10 to 100 nM
CC(C)(C)NC[C@H](O)c1ccc2c(n1)NCC2	10 to 100 nM

The compound listed as CC(C)(C)NC[C@H](O)c1ccc2cccc(Cl)c2n1 shows EC50 equal to < 10 nM

The compound listed as CC(C)(C)NC[C@H](O)c1cccc2oc(=O)ccc12 shows EC50 equal to > 1000 nM

The compound listed as CC(C)(C)NC[C@H](O)c1ccc(F)c2[nH]c3ccccc3c12 shows EC50 equal to < 10 nM

The compound listed as O[C@H](CNC1(C(F)(F)F)CC1)c1cccc2cccnc12 shows EC50 equal to > 1000 nM
